target: Factor D (Homo sapiens (Human), UniProt P00746); assay: biochemical; type: biochemical; conditions: read-out: IC50
Sequence (P00746 26-253): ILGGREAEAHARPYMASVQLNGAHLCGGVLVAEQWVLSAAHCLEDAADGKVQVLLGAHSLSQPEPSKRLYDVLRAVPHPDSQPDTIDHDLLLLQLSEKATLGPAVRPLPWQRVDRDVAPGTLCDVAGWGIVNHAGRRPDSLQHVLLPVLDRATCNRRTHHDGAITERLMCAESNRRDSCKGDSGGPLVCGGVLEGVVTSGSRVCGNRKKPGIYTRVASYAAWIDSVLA
pIC50: −log10 of the molar value.
Classify as follows. Reported pIC50 greater than or equal to 6: True. Reported pIC50 below: False.

Illustrative cases are given below, each with its answer.
NC(=O)c1nn(CC(=O)N2[C@@H]3C[C@@H]3C[C@H]2C(=O)Nc2cccc(-c3ncccc3F)c2F)c2ccccc12 [Example 686] = True
CC(=O)c1cn(CC(=O)N2C[C@](C)(F)C[C@H]2C(=O)NCc2cccc(Cl)c2F)c2cc(C(=O)O)ccc12 [Example 599] = True
CC(=O)c1cn(CC(=O)N2C[C@H](F)C[C@H]2C(=O)NCc2cccc(Cl)c2F)c2cc(CO)ccc12 [Example 604] = True

Query: Could you tell me if the measured pIC50 of Cc1ccc(Cl)cc1CNC(=O)[C@@H]1C[C@H](N)CN1C(=O)Nc1cn(C(N)=O)c2ccccc12 [Example 58] reaches 6 or more?
Reply: True

Query: Next entry: NC(=O)n1cc(NC(=O)N2CCC[C@H]2CNc2cccc(OC(F)(F)F)c2)c2ccccc21 [Example 117]
Reply: False

====

biological target: Factor D (Homo sapiens (Human), UniProt P00746); experiment: biochemical; format: biochemical; conditions: read-out: IC50
Measured parameter: IC50 (nM)
Just the number please, in nM, no unit attached.

NC(=O)n1cc(NC(=O)N2C[C@H](F)C[C@H]2CNS(=O)(=O)c2cccc(Br)c2)c2ccccc21 [Example 108] = 55
CC(=O)c1nn(CC(=O)N2[C@@H]3C[C@@H]3C[C@H]2C(=O)Nc2nccc(C(F)(F)F)n2)c2ncccc12 [Example 769] = 378
CC(=O)c1cn(CC(=O)N2C[C@](C)(F)C[C@H]2C(=O)NCc2cccc(Cl)c2F)c2ccc(O)cc12 [Example 580] = 252

Query: // IC50 lookup, key: CNC[C@@]1(F)C[C@@H](C(=O)NCc2cccc(Cl)c2F)N(C(=O)Nc2cn(C(N)=O)c3ccccc23)C1 [Example 424]
Reply: 68

====

biological target: Factor D (Homo sapiens (Human), UniProt P00746); assay: biochemical; assay type: biochemical; conditions: read-out: IC50
Each record here notes measured pIC50.
Give only the number. pIC50 is defined as minus log10 of concentration in molar units.

CCc1cc2c(C(N)=O)nn(CC(=O)N3C[C@H](F)C[C@H]3C(=O)Nc3cccc(OC(F)(F)F)c3F)c2cn1 = 7.57
NC(=O)n1cc(CC(=O)N2[C@@H]3C[C@@H]3C[C@H]2C(=O)NCc2cccc(Cl)c2F)c2cc(OCCO)ccc21 = 7.89
NC(=O)n1cc(NC(=O)N2CCS[C@H]2C(=O)N[C@H](CO)c2cccc(Cl)c2F)c2ccccc21 = 5.97

Now for another entry.
Query: // pIC50 lookup, key: `NC(=O)n1cc(NC(=O)N2C[C@@H](N)C[C@H]2C(=O)NCc2ccc(OC(F)(F)F)cc2)c2ccccc21`
Reply: 4.64

====

Each record here notes measured pIC50.
molecular target: Factor D (Homo sapiens (Human), UniProt P00746); experiment: biochemical; assay type: biochemical; conditions: read-out: IC50
Give only the number. pIC50 is defined as minus log10 of concentration in molar units.

Sample records with pIC50:
COc1cccc(CNC(=O)[C@@H]2C[C@H](N)CN2C(=O)Nc2cn(C(N)=O)c3ccccc23)c1 = 5.49
CO[C@H]1[C@@H](C(=O)NC2(c3cccc(Cl)c3F)CC2)N(C(=O)Cn2nc(C(N)=O)c3cccnc32)C[C@@H]1F = 7.60
COc1cc2c(C(C)=O)nn(CC(=O)N3[C@@H]4C[C@@H]4C[C@H]3C(=O)NCc3cccc(Cl)c3F)c2cc1OC = 7.80
CCc1cccc(NC(=O)[C@@H]2CC3CC3N2C(=O)Nc2cn(C(N)=O)c3ccccc23)n1 (some centres unmarked) = 7.10
NC(=O)c1cccc(NC(=O)[C@@H]2CCCN2C(=O)Nc2cn(C(N)=O)c3ccccc23)c1 = 5.37

Query: // pIC50 lookup, key: `CC(=O)c1nn(CC(=O)N2[C@@H]3C[C@@H]3C[C@H]2C(=O)Nc2cccc(OC(F)(F)F)c2F)c2ccc(OCc3ncccn3)cc12`
Reply: 7.62

Query: Next entry: `NC(=O)n1cc(CC(=O)N2C[C@@H]3C[C@@H]3[C@H]2C(=O)N[C@H](CO)c2cccc(Cl)c2F)c2ccccc21`
Reply: 5.35

Query: Next entry: `NC(=O)n1cc(NC(=O)N2C[C@@H](N)C[C@H]2C(=O)Nc2cccc(OC(F)(F)F)c2)c2ccc(OCc3ccccc3)cc21`
Reply: 5.52

Query: Next entry: `CC(=O)c1cn(CC(=O)N2[C@@H]3C[C@@H]3C[C@H]2C(=O)NCc2cccc(Cl)c2F)c2nc(C#N)ccc12`
Reply: 6.65

Query: Next entry: `CC(=O)c1cn(CC(=O)N2[C@@H]3C[C@@H]3C[C@H]2C(=O)NCc2cccc(Cl)c2F)c2cc(-c3nnn[nH]3)ccc12`
Reply: 7.41

Query: Next entry: `CC(=O)c1cn(CC(=O)N2C[C@](C)(F)C[C@H]2C(=O)N[C@H](CO)c2cccc(Cl)c2F)c2ncccc12`
Reply: 6.61

Query: Next entry: `CC(=O)c1nn(CC(=O)N2[C@@H]3C[C@@H]3C[C@H]2C(=O)Nc2cccc(OC(F)(F)F)c2F)c2cc(C(=O)O)ccc12`
Reply: 7.74

Query: Next entry: `CC(=O)c1cn(CC(=O)N2CCS[C@H]2C(=O)NCc2cccc(Cl)c2F)c2ncccc12`
Reply: 6.71

Query: Next entry: `CC(=O)c1nn(CC(=O)N2[C@@H]3C[C@@H]3C[C@H]2C(=O)Nc2cccc(Br)n2)c2cnccc12`
Reply: 7.74

====

molecular target: Factor D (Homo sapiens (Human), UniProt P00746); experiment: biochemical; format: biochemical; settings: read-out: IC50
Each record here notes measured pIC50.
Give only the number. pIC50 is defined as minus log10 of concentration in molar units.

NC(=O)c1nn(CC(=O)N2[C@@H]3C[C@@H]3C[C@H]2C(=O)Nc2nc(Br)cs2)c2ccccc12 = 7.43
NC(=O)n1cc(NC(=O)N2[C@@H]3C[C@@H]3C[C@H]2C(=O)NCc2cccc(F)c2F)c2ccccc21 = 7.85
CO[C@@H]1CCN(C(=O)Nc2cn(C(N)=O)c3ccccc23)[C@@H]1C(=O)NCc1cccc(Cl)c1F = 7.70

Query: // pIC50 lookup, key: `NC(=O)n1cc(CC(=O)N2[C@@H]3C[C@@H]3C[C@H]2C(=O)NCc2cccc(Cl)c2F)c2ccc(CCO)cc21`
Reply: 7.02

Query: Next entry: `COC(=O)c1cc(Br)cc(NC(=O)[C@@H]2C[C@@H](F)CN2C(=O)Nc2cn(C(N)=O)c3ccccc23)c1`
Reply: 7.26

Query: Next entry: NC(=O)n1cc(NC(=O)N2C3CC3C[C@H]2C(=O)NCc2cccc(Cl)c2F)c2ccc(OCCO)cc21 (stereo partly drawn)
Reply: 7.60

Query: Next entry: `NC(=O)n1cc(NC(=O)N2C[C@H](F)C[C@H]2CNS(=O)(=O)c2cccc(Cl)c2)c2ccccc21`
Reply: 7.12

Query: Next entry: `NC(=O)n1cc(NC(=O)N2C[C@@H](N)C[C@H]2C(=O)NCCc2ccccc2Cl)c2ccccc21`
Reply: 5.33

====

target: Factor D (Homo sapiens (Human), UniProt P00746); assay: biochemical; assay type: biochemical; conditions: read-out: IC50
Each record here notes measured pIC50.
Give only the number. pIC50 is defined as minus log10 of concentration in molar units.

NC(=O)n1cc(NC(=O)N2C[C@@H](N)C[C@H]2C(=O)NCCc2cccc(Cl)c2)c2ccccc21 = 4.84
NC[C@@]1(F)C[C@@H](C(=O)NCc2cccc(Cl)c2F)N(C(=O)Nc2cn(C(N)=O)c3ccccc23)C1 = 7.60
NC(=O)n1cc(CC(=O)N2[C@@H]3C[C@@H]3C[C@H]2C(=O)Nc2cccc(OC(F)(F)F)c2)c2cc(OCCO)ccc21 = 6.12
NC(=O)n1cc(NC(=O)N2CCS[C@H]2C(=O)NCc2cccc(Cl)c2F)c2cc(F)ccc21 = 8.00
COc1ccc2c(c1)c(C(N)=O)cn2CC(=O)N1C[C@H](F)C[C@H]1C(=O)NCc1cccc(Cl)c1F = 6.89
CC(=O)c1cn(CC(=O)N2[C@@H]3C[C@@H]3C[C@H]2C(=O)NCc2cccc(Cl)c2F)c2ccc(C(=N)N(C)C)cc12 = 7.38
CC(C)(C)c1csc(NC(=O)[C@@H]2CCCN2C(=O)Nc2cn(C(N)=O)c3ccccc23)n1 = 5.85
Cc1cc2c(C(N)=O)nn(CC(=O)N3C[C@H](F)C[C@H]3C(=O)N[C@H](C)c3cccc(Cl)c3F)c2cn1 = 7.17
COc1ccc2c(c1)c(NC(=O)N1C3CC3C[C@H]1C(=O)NCc1cccc(Cl)c1F)cn2C(N)=O (stereo partly shown) = 8.40
CC(=O)c1cn(CC(=O)N2[C@@H]3C[C@@H]3C[C@H]2C(=O)NCc2cccc(Cl)c2F)c2cnc(C)cc12 = 7.92

Query: // pIC50 lookup, key: `COC[C@@H](NC(=O)[C@@H]1[C@@H]2C[C@@H]2CN1C(=O)Nc1cn(C(N)=O)c2ccccc12)c1cccc(Cl)c1F`
Reply: 6.99

Query: Next entry: `NC(=O)n1cc(NC(=O)N2[C@@H]3C[C@@H]3C[C@H]2C(=O)Nc2ncccc2F)c2ccccc21`
Reply: 5.98

Query: Next entry: NC(=O)n1cc(NC(=O)N2C3CC3C[C@H]2C(=O)NCc2cccc(Cl)c2F)c2ccc(O)cc21 (stereo partly shown)
Reply: 8.15

Query: Next entry: `NC(=O)n1cc(NC(=O)N2[C@@H]3C[C@@H]3C[C@H]2C(=O)Nc2cc(Br)cc(-c3nnn[nH]3)c2)c2ccccc21`
Reply: 7.17

Query: Next entry: `NC(=O)n1cc(NC(=O)N2NCC[C@H]2C(=O)NCc2cccc(Cl)c2F)c2ccccc21`
Reply: 8.15

Query: Next entry: `Cc1c(Cl)cccc1CNC(=O)[C@@H]1C[C@H](N)CN1C(=O)Nc1cn(C(N)=O)c2ccccc12`
Reply: 5.87

Query: Next entry: `C[C@H]1C[C@@H](C(=O)NCc2cccc(Cl)c2F)N(C(=O)Nc2cn(C(N)=O)c3ccccc23)C1`
Reply: 7.20

Query: Next entry: `NC(=O)n1cc(NC(=O)N2C[C@@H](N)C[C@H]2C(=O)NC2CCCCC2)c2ccccc21`
Reply: 4.84

Query: Next entry: `CC(=O)c1cn(CC(=O)N2C[C@@H](N(C)C)[C@H](F)[C@H]2C(=O)NCc2cccc(Cl)c2F)c2ccccc12`
Reply: 5.64

Query: Next entry: `C[C@@]1(F)C[C@@H](C(=O)NCc2cccc(Cl)c2F)N(C(=O)Nc2cn(C(N)=O)c3ccccc23)C1`
Reply: 7.85

Query: Next entry: `CO[C@H]1[C@@H](C(=O)N[C@H](C)c2cccc(Cl)c2F)N(C(=O)Cn2nc(C(N)=O)c3ccncc32)C[C@@H]1F`
Reply: 7.62

Query: Next entry: `NC(=O)n1cc(NC(=O)N2C[C@@H](C(=O)O)C[C@H]2C(=O)NCc2c(F)ccc(Cl)c2F)c2ccccc21`
Reply: 5.78

Query: Next entry: `CC(=O)c1cn(CC(=O)N2C[C@H](F)C[C@H]2C(=O)NCc2cccc(Cl)c2F)c2cc(OCc3ccc(C(=O)O)cc3)ccc12`
Reply: 6.64
